Provenance of the data: patent US20050232917

- SYSTEM_NAME: MAdCAM-IgG1 Fc fusion (human)
- Sequence (chain, as listed by the source): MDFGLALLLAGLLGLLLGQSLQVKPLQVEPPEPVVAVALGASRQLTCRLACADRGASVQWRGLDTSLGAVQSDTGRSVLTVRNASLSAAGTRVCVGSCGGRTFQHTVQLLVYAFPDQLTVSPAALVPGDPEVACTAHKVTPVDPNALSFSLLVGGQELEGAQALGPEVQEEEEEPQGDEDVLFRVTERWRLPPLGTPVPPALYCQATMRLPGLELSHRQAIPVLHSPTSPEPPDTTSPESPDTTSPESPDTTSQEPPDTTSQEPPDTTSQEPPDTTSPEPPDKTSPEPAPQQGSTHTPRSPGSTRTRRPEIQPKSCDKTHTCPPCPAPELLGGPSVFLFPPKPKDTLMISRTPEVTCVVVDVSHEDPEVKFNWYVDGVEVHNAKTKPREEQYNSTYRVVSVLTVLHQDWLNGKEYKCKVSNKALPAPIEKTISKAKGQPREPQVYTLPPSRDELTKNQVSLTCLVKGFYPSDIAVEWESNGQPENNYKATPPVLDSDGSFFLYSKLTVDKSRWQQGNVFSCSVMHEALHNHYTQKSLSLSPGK
- ASSAY_INFO: SPR, protocol 2
METRIC_NAME: pKd
# pKd: negative log10 of molar concentration; output just the value

Consider the binder shown here: 7.16.6 (antibody, V domains shown) VH: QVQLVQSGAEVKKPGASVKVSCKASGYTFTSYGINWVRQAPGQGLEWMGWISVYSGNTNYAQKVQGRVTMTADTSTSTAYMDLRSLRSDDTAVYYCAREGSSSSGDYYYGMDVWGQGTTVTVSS VL: DIVMTQTPLSLSVTPGQPASISCKSSQSLLHTDGTTYLYWYLQKPGQPPQLLIYEVSNRFSGVPDRFSGSGSGTDFTLKISRVEAEDVGIYYCMQNIQLPWTFGQGTKVEIKR What is its recorded pKd?
11.32

Check 9.8.2 (antibody, V domains shown) VH: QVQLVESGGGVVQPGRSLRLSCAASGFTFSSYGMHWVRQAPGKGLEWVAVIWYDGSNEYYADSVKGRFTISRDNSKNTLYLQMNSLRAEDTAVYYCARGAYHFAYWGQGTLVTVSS VL: DMRVPAQLLGLLLLWLSVAGARCDIQMTQSPSSLSASVGDRVTITCQASQDISNYLNWYQQKPGKAPKLLIYDASNLETGVPSRFSGSGSGTDFTFTISSLQPEDIATYSCQHSDNLSITFGQGTRLEIKR too.
10.49
